tested on: HCC-44; experiment: relative viability (nuclei count vs DMSO), 5 days (fraction); higher = more cells survive; conditions: first compound 0.4 µM
REPORTED_ENDPOINT: relative viability

>>> recorded_value("O=C(O)c1ccc(-c2c[nH]c3ncc(-c4ccccc4)cc23)cc1C1CCCC1 + Cc1cc(Nc2cc(N3CCN(C)CC3)nc(Sc3ccc(NC(=O)C4CC4)cc3)n2)n[nH]1 [Tozasertib] (partner 0.1 µM)")
0.853
>>> recorded_value("O=C(O)c1ccc(-c2c[nH]c3ncc(-c4ccccc4)cc23)cc1C1CCCC1 + C[C@]1(O)C[C@@H](c2nc(-c3ccc4ccc(-c5ccccc5)nc4c3)c3c(N)nccn32)C1 [Linsitinib] (partner 1 µM)")
0.515
>>> recorded_value("O=C(O)c1ccc(-c2c[nH]c3ncc(-c4ccccc4)cc23)cc1C1CCCC1 + COc1cccc2cc(-c3nc([C@H]4CC[C@H](C(=O)O)CC4)n4ncnc(N)c34)[nH]c12 [OSI-027] (partner 0.5 µM)")
0.594
>>> recorded_value("O=C(O)c1ccc(-c2c[nH]c3ncc(-c4ccccc4)cc23)cc1C1CCCC1 + O=C(CCCCCCC(=O)Nc1ccccc1)NO [Vorinostat] (partner 1 µM)")
1.02
>>> recorded_value("O=C(O)c1ccc(-c2c[nH]c3ncc(-c4ccccc4)cc23)cc1C1CCCC1 + CC1(C)CCC(c2ccc(Cl)cc2)=C(CN2CCN(c3ccc(C(=O)NS(=O)(=O)c4ccc(N[C@H](CCN5CCOCC5)CSc5ccccc5)c(S(=O)(=O)C(F)(F)F)c4)cc3)CC2)C1 [Navitoclax] (partner 0.5 µM)")
0.944

src = the supplement of paper PMC10307832
